Data origin: patent US20260062441A1

- Measurement notes: Photophysical characterization
- Format: physicochemical
- Measurement parameters: Table 1b; relative to dimethoxy aza-BODIPY
Endpoint: Φ

CO[B-]1(OC)n2c(-c3ccc(OCc4cn(C(COC5OC(CO)C(O)C(O)C5O)COC5OC(CO)C(O)C(O)C5O)nn4)cc3)cc(-c3ccccc3)c2N=C2C(c3ccccc3)=CC(c3ccc(OCc4cn(C(COC5OC(CO)C(O)C(O)C5O)COC5OC(CO)C(O)C(O)C5O)nn4)cc3)=[N+]21 (stereo not shown) [mvGlu-AB2] | 0.19
COc1ccc(C2=[N+]3C(=Nc4c(-c5ccc(OCc6cn(C(COC7OC(CO)C(O)C(O)C7O)COC7OC(CO)C(O)C(O)C7O)nn6)cc5)cc(-c5ccc(OC)cc5)n4[B-]3(OC)OC)C(c3ccc(OCc4cn(C(COC5OC(CO)C(O)C(O)C5O)COC5OC(CO)C(O)C(O)C5O)nn4)cc3)=C2)cc1 (stereo not shown) [mvGlu-AB3] | 0.31
COc1ccc(-c2cc(-c3ccccc3)c3n2[B-](OC)(OC)[N+]2=C(c4ccc(OCc5cn(C(COC6OC(CO)C(O)C(O)C6O)COC6OC(CO)C(O)C(O)C6O)nn5)cc4)C=C(c4ccccc4)C2=N3)cc1 (stereo not shown) [mvGlu-AB1] | 0.10
COc1ccc(C2=[N+]3C(=Nc4c(-c5ccccc5)cc(-c5ccc(OC)cc5)n4[B-]3(F)F)C(c3ccccc3)=C2)cc1 [AB-OMe2, reference compound] | 0.014

---

Catalogue of molecules with associated λem
- Measurement notes: Photophysical characterization
- Type: physicochemical
- Measurement parameters: Table 1b; 3:7 v/v MeCN:PBS (pH=7.4)
Endpoint: λem (nm)

COc1ccc(-c2cc(-c3ccccc3)c3n2[B-](OC)(OC)[N+]2=C(c4ccc(OCc5cn(C(COC6OC(CO)C(O)C(O)C6O)COC6OC(CO)C(O)C(O)C6O)nn5)cc4)C=C(c4ccccc4)C2=N3)cc1 (stereo not shown) | 710
COc1ccc(C2=[N+]3C(=Nc4c(-c5ccccc5)cc(-c5ccc(OC)cc5)n4[B-]3(F)F)C(c3ccccc3)=C2)cc1 [AB-OMe2, reference compound] | 710
CO[B-]1(OC)n2c(-c3ccc(OCc4cn(C(COC5OC(CO)C(O)C(O)C5O)COC5OC(CO)C(O)C(O)C5O)nn4)cc3)cc(-c3ccccc3)c2N=C2C(c3ccccc3)=CC(c3ccc(OCc4cn(C(COC5OC(CO)C(O)C(O)C5O)COC5OC(CO)C(O)C(O)C5O)nn4)cc3)=[N+]21 (stereo not shown) | 710
COc1ccc(C2=[N+]3C(=Nc4c(-c5ccc(OCc6cn(C(COC7OC(CO)C(O)C(O)C7O)COC7OC(CO)C(O)C(O)C7O)nn6)cc5)cc(-c5ccc(OC)cc5)n4[B-]3(OC)OC)C(c3ccc(OCc4cn(C(COC5OC(CO)C(O)C(O)C5O)COC5OC(CO)C(O)C(O)C5O)nn4)cc3)=C2)cc1 (stereo not shown) | 712

---

- Measurement notes: Photophysical characterization
- Assay type: physicochemical
- Measurement parameters: Table 2; 3:7 v/v MeCN:PBS (pH=7.4)
Catalogue of molecules with associated λem
Endpoint: λem (nm)

COc1ccc(C2=[N+]3C(=Nc4c(-c5ccc(OCc6cn(C(COC7OC(CO)C(O)C(O)C7O)COC7OC(CO)C(O)C(O)C7O)nn6)cc5)cc(-c5ccc(OC)cc5)n4[B-]3(OC)OC)C(c3ccc(OCc4cn(C(COC5OC(CO)C(O)C(O)C5O)COC5OC(CO)C(O)C(O)C5O)nn4)cc3)=C2)cc1 (stereo not shown) | 712
COc1ccc(C2=[N+]3C(=Nc4c(-c5ccccc5)cc(-c5ccc(OC)cc5)n4[B-]3(F)F)C(c3ccccc3)=C2)cc1 [AB-OMe2, reference compound] | 710
CO[B-]1(OC)n2c(-c3ccc(OCc4cn(C(COC5OC(CO)C(O)C(O)C5O)COC5OC(CO)C(O)C(O)C5O)nn4)cc3)cc(-c3ccccc3)c2N=C2C(c3ccccc3)=CC(c3ccc(OCc4cn(C(COC5OC(CO)C(O)C(O)C5O)COC5OC(CO)C(O)C(O)C5O)nn4)cc3)=[N+]21 (stereo not shown) | 710
COc1ccc(-c2cc(-c3ccccc3)c3n2[B-](OC)(OC)[N+]2=C(c4ccc(OCc5cn(C(COC6OC(CO)C(O)C(O)C6O)COC6OC(CO)C(O)C(O)C6O)nn5)cc4)C=C(c4ccccc4)C2=N3)cc1 (stereo not shown) | 710

---

- Measurement notes: Log D7.4 measurements (octanol/PBS partition)
- Assay type: physicochemical
- Measurement parameters: octanol/PBS pH 7.4
Catalogue of compounds with associated logD7.4
Endpoint: logD7.4

CO[B-]1(OC)n2c(-c3ccc(OCc4cn(C(COC5OC(CO)C(O)C(O)C5O)COC5OC(CO)C(O)C(O)C5O)nn4)cc3)cc(-c3ccccc3)c2N=C2C(c3ccccc3)=CC(c3ccc(OCc4cn(C(COC5OC(CO)C(O)C(O)C5O)COC5OC(CO)C(O)C(O)C5O)nn4)cc3)=[N+]21 (stereo not shown) | −1.12±0.16
COc1ccc(C2=[N+]3C(=Nc4c(-c5ccc(OCc6cn(C(COC7OC(CO)C(O)C(O)C7O)COC7OC(CO)C(O)C(O)C7O)nn6)cc5)cc(-c5ccc(OC)cc5)n4[B-]3(OC)OC)C(c3ccc(OCc4cn(C(COC5OC(CO)C(O)C(O)C5O)COC5OC(CO)C(O)C(O)C5O)nn4)cc3)=C2)cc1 (stereo not shown) | −0.71±0.11
COc1ccc(-c2cc(-c3ccccc3)c3n2[B-](OC)(OC)[N+]2=C(c4ccc(OCc5cn(C(COC6OC(CO)C(O)C(O)C6O)COC6OC(CO)C(O)C(O)C6O)nn5)cc4)C=C(c4ccccc4)C2=N3)cc1 (stereo not shown) | 0.75±0.02
COc1ccc(C2=[N+]3C(=Nc4c(-c5ccccc5)cc(-c5ccc(OC)cc5)n4[B-]3(F)F)C(c3ccccc3)=C2)cc1 [AB-OMe2, reference compound] | 2.51±0.92

---

- Measurement notes: Photophysical characterization
- Assay type: physicochemical
- Measurement parameters: Table 2; 3:7 v/v MeCN:PBS (pH=7.4)
Endpoint: λabs (nm)

COc1ccc(C2=[N+]3C(=Nc4c(-c5ccccc5)cc(-c5ccc(OC)cc5)n4[B-]3(F)F)C(c3ccccc3)=C2)cc1 [AB-OMe2, reference compound] | 689
COc1ccc(C2=[N+]3C(=Nc4c(-c5ccc(OCc6cn(C(COC7OC(CO)C(O)C(O)C7O)COC7OC(CO)C(O)C(O)C7O)nn6)cc5)cc(-c5ccc(OC)cc5)n4[B-]3(OC)OC)C(c3ccc(OCc4cn(C(COC5OC(CO)C(O)C(O)C5O)COC5OC(CO)C(O)C(O)C5O)nn4)cc3)=C2)cc1 (stereo not shown) | 681
CO[B-]1(OC)n2c(-c3ccc(OCc4cn(C(COC5OC(CO)C(O)C(O)C5O)COC5OC(CO)C(O)C(O)C5O)nn4)cc3)cc(-c3ccccc3)c2N=C2C(c3ccccc3)=CC(c3ccc(OCc4cn(C(COC5OC(CO)C(O)C(O)C5O)COC5OC(CO)C(O)C(O)C5O)nn4)cc3)=[N+]21 (stereo not shown) | 679
COc1ccc(-c2cc(-c3ccccc3)c3n2[B-](OC)(OC)[N+]2=C(c4ccc(OCc5cn(C(COC6OC(CO)C(O)C(O)C6O)COC6OC(CO)C(O)C(O)C6O)nn5)cc4)C=C(c4ccccc4)C2=N3)cc1 (stereo not shown) | 675

---

- Measurement notes: Photophysical characterization
- Format: physicochemical
- Measurement parameters: Table 2; PA Brightness Factor
Endpoint: PABF

COc1ccc(C2=[N+]3C(=Nc4c(-c5ccccc5)cc(-c5ccc(OC)cc5)n4[B-]3(F)F)C(c3ccccc3)=C2)cc1 [AB-OMe2, reference compound] | 0.34 × 10^4
COc1ccc(-c2cc(-c3ccccc3)c3n2[B-](OC)(OC)[N+]2=C(c4ccc(OCc5cn(C(COC6OC(CO)C(O)C(O)C6O)COC6OC(CO)C(O)C(O)C6O)nn5)cc4)C=C(c4ccccc4)C2=N3)cc1 (stereo not shown) | 1.6 × 10^4
CO[B-]1(OC)n2c(-c3ccc(OCc4cn(C(COC5OC(CO)C(O)C(O)C5O)COC5OC(CO)C(O)C(O)C5O)nn4)cc3)cc(-c3ccccc3)c2N=C2C(c3ccccc3)=CC(c3ccc(OCc4cn(C(COC5OC(CO)C(O)C(O)C5O)COC5OC(CO)C(O)C(O)C5O)nn4)cc3)=[N+]21 (stereo not shown) | 2.1 × 10^4
COc1ccc(C2=[N+]3C(=Nc4c(-c5ccc(OCc6cn(C(COC7OC(CO)C(O)C(O)C7O)COC7OC(CO)C(O)C(O)C7O)nn6)cc5)cc(-c5ccc(OC)cc5)n4[B-]3(OC)OC)C(c3ccc(OCc4cn(C(COC5OC(CO)C(O)C(O)C5O)COC5OC(CO)C(O)C(O)C5O)nn4)cc3)=C2)cc1 (stereo not shown) | 1.7 × 10^4
